# credit: ChEMBL document CHEMBL3393023

test: Permeability from apical to basolateral layer in human Caco2 cells; format: ADME, cell-based; details: Caco-2, read-out: permeability
REPORTED_PROPERTY: Papp A→B (×10⁻⁶ cm/s)

[[record]]
query_smiles = "COC(=O)N[C@H](C(=O)N1C[C@@H](C)C[C@H]1c1nc(-c2ccc(-c3ccc(-c4ccc5[nH]c([C@@H]6C[C@H](C)CN6C(=O)[C@@H](NC(=O)OC)C(C)C)nc5c4)cc3)cc2)c[nH]1)C(C)C"
result = 4.1


###

Target: Cytochrome P450 1A2 (Homo sapiens, UniProt P05177)
Sequence (P05177 whole entry): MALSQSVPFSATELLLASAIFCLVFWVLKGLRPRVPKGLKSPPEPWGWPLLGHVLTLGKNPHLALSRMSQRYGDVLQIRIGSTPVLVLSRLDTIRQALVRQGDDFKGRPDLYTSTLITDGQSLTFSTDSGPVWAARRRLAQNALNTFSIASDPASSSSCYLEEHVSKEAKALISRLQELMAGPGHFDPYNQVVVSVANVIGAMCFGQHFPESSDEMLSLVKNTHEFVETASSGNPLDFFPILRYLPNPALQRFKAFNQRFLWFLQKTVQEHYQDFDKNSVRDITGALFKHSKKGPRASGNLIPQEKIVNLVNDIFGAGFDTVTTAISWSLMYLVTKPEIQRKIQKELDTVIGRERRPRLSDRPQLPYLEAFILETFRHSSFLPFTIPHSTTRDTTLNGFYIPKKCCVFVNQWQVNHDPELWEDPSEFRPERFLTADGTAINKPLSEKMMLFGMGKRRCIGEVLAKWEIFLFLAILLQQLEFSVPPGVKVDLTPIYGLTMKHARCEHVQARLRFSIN
REPORTED_PROPERTY: IC50

[[record]]
query_smiles = "COC(=O)N[C@H](C(=O)N1C[C@@H](C)C[C@H]1c1nc(-c2ccc(-c3ccc(-c4ccc5[nH]c([C@@H]6C[C@H](C)CN6C(=O)[C@@H](NC(=O)OC)C(C)C)nc5c4)cc3)cc2)c[nH]1)C(C)C"
result = "> 30 µM"


###

molecular target: Voltage-gated inwardly rectifying potassium channel KCNH2 (Homo sapiens, UniProt Q12809); test: Inhibition of human ERG channel by QPatch technique
Sequence (Q12809 whole entry): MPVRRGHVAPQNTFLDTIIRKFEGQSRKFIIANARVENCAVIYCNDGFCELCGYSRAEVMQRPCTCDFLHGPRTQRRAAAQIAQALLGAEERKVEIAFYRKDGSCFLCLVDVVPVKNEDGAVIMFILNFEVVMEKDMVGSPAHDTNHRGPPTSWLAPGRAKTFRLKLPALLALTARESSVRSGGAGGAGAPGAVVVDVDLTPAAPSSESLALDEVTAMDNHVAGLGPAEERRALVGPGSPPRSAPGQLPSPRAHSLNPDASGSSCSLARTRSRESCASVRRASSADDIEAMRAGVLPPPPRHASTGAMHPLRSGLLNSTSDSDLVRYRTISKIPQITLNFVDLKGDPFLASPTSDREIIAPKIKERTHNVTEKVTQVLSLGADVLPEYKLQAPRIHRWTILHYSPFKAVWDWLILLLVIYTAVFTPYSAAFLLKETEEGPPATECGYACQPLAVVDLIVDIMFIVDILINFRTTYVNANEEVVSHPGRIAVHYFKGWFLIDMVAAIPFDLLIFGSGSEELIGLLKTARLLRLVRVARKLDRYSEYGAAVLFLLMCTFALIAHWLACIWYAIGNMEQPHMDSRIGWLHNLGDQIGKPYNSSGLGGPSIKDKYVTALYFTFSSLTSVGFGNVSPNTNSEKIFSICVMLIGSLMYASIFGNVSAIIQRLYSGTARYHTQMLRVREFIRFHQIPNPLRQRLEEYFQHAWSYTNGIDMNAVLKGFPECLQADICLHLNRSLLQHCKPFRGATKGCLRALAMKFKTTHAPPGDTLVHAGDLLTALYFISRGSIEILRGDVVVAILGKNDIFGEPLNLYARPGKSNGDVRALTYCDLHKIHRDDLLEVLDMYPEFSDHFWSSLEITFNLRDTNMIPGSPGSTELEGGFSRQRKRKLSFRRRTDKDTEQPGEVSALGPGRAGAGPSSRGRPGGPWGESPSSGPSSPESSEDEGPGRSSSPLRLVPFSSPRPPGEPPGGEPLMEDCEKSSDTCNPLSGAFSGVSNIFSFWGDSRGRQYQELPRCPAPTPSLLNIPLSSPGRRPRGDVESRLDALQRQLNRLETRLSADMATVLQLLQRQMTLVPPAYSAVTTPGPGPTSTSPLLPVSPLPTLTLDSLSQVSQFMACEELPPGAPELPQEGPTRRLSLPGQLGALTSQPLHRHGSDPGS
pIC50: −log10 of the molar value.
REPORTED_PROPERTY: pIC50

[[record]]
query_smiles = "COC(=O)N[C@H](C(=O)N1C[C@@H](C)C[C@H]1c1nc(-c2ccc(-c3ccc(-c4ccc5[nH]c([C@@H]6C[C@H](C)CN6C(=O)[C@@H](NC(=O)OC)C(C)C)nc5c4)cc3)cc2)c[nH]1)C(C)C"
target_or_test_system = "Voltage-gated inwardly rectifying potassium channel KCNH2 (Homo sapiens, UniProt Q12809)"
result = "< 4.52"


###

target: Voltage-gated inwardly rectifying potassium channel KCNH2 (Homo sapiens, UniProt Q12809); assay: Inhibition of human ERG channel by planar technique
REPORTED_PROPERTY: IC50

[[record]]
query_smiles = "COC(=O)N[C@H](C(=O)N1C[C@@H](C)C[C@H]1c1nc(-c2ccc(-c3ccc(-c4ccc5[nH]c([C@@H]6C[C@H](C)CN6C(=O)[C@@H](NC(=O)OC)C(C)C)nc5c4)cc3)cc2)c[nH]1)C(C)C"
result = "> 30 µM"


###

experiment: Metabolic stability in human hepatocytes assessed as compound remaining at 5 uM after 60 mins; assay type: ADME, cell-based, Hepatocyte; settings: read-out: Stability
REPORTED_PROPERTY: remaining at 1 h, 5 µM

[[record]]
query_smiles = "COC(=O)N[C@H](C(=O)N1C[C@@H](C)C[C@H]1c1nc(-c2ccc(-c3ccc(-c4ccc5[nH]c([C@@H]6C[C@H](C)CN6C(=O)[C@@H](NC(=O)OC)C(C)C)nc5c4)cc3)cc2)c[nH]1)C(C)C"
result = "> 90%"


###

experiment: AUC (0 to 8 hrs) in rat at 3 mg/kg, po; format: ADME, organism-based; parameters: time < 8 hr, dose 3 mg/kg, route oral; settings: plasma
REPORTED_PROPERTY: AUC(0-t) at 8 h

[[record]]
query_smiles = "COC(=O)N[C@H](C(=O)N1C[C@@H](C)C[C@H]1c1nc(-c2ccc(-c3ccc(-c4ccc5[nH]c([C@@H]6C[C@H](C)CN6C(=O)[C@@H](NC(=O)OC)C(C)C)nc5c4)cc3)cc2)c[nH]1)C(C)C"
result = "2080 ng·h/mL"


###

tested on: Hepatitis C virus; assay: Antiviral activity against Hepatitis C virus genotype 1b infected in human Huh-5.2 cells assessed as decrease in HCV replicon RNA replication after 4 days by luciferase assay; assay type: functional, cell-based, Hepacivirus hominis; conditions: Huh-5-2, 96 h
Form field: EC50 (one value per entry).
REPORTED_PROPERTY: EC50 (nM)

[[record]]
query_smiles = "CC[C@H]1C[C@@H](c2nc3cc(-c4ccc(-c5ccc6[nH]c([C@@H]7C[C@H](CC)CN7C(=O)[C@@H](NC(=O)OC)C(C)C)nc6c5)cc4)ccc3[nH]2)N(C(=O)[C@@H](NC(=O)OC)C(C)C)C1"
target_or_test_system = "Hepatitis C virus"
result = 0.019

[[record]]
query_smiles = "COC(=O)N[C@H](C(=O)N1C[C@H](OC)C[C@H]1c1nc2cc(-c3ccc(-c4ccc5[nH]c([C@@H]6C[C@@H](OC)CN6C(=O)[C@@H](NC(=O)OC)C(C)C)nc5c4)cc3)ccc2[nH]1)C(C)C"
target_or_test_system = "Hepatitis C virus"
result = 0.034

[[record]]
query_smiles = "COC(=O)N[C@H](C(=O)N1CC(F)(F)C[C@H]1c1nc2cc(-c3ccc(-c4ccc5[nH]c([C@@H]6CC(F)(F)CN6C(=O)[C@@H](NC(=O)OC)C(C)C)nc5c4)cc3)ccc2[nH]1)C(C)C"
target_or_test_system = "Hepatitis C virus"
result = 0.004

[[record]]
query_smiles = "COC(=O)N[C@H](C(=O)N1CCC[C@H]1c1nc2cc(-c3cc(C)c(-c4ccc5[nH]c([C@@H]6CCCN6C(=O)[C@@H](NC(=O)OC)C(C)C)nc5c4)cc3C)ccc2[nH]1)C(C)C"
target_or_test_system = "Hepatitis C virus"
result = 0.006

[[record]]
query_smiles = "COC(=O)N[C@H](C(=O)N1CCC[C@H]1c1nc2ccc(C#Cc3ccc4nc([C@@H]5CCCN5C(=O)[C@@H](NC(=O)OC)C(C)C)[nH]c4c3)cc2[nH]1)C(C)C"
target_or_test_system = "Hepatitis C virus"
result = 0.022

[[record]]
query_smiles = "COC(=O)N[C@H](C(=O)N1C[C@@H](C)C[C@H]1c1nc(-c2ccc(-c3ccc(-c4ccc5[nH]c([C@@H]6C[C@H](C)CN6C(=O)[C@@H](NC(=O)OC)C(C)C)nc5c4)cc3)cc2)c[nH]1)C(C)C"
target_or_test_system = "Hepatitis C virus"
result = 0.005

[[record]]
query_smiles = "COC(=O)N[C@H](C(=O)N1C[C@@H](C)C[C@H]1c1nc2cc(C#CC#Cc3ccc4[nH]c([C@@H]5C[C@H](C)CN5C(=O)[C@@H](NC(=O)OC)C(C)C)nc4c3)ccc2[nH]1)C(C)C"
target_or_test_system = "Hepatitis C virus"
result = 0.024

[[record]]
query_smiles = "COC(=O)N[C@H](C(=O)N1CCC[C@H]1c1nc2cc(-c3ccc(-c4ccc5[nH]c([C@@H]6CCCN6C(=O)[C@@H](NC(=O)OC)C(C)C)nc5c4)c(F)c3)ccc2[nH]1)C(C)C"
target_or_test_system = "Hepatitis C virus"
result = 0.012

[[record]]
query_smiles = "COC(=O)N[C@H](C(=O)N1CCC[C@H]1c1nc2ccc(-c3ccc(-c4ccc5nc([C@@H]6CCCN6C(=O)[C@@H](NC(=O)OC)C(C)C)[nH]c5c4)cc3)cc2[nH]1)C(C)C"
target_or_test_system = "Hepatitis C virus"
result = 0.012

[[record]]
query_smiles = "COC(=O)N[C@H](C(=O)N1C[C@@H](OC)C[C@H]1c1nc2cc(-c3ccc(-c4ccc5[nH]c([C@@H]6C[C@H](OC)CN6C(=O)[C@@H](NC(=O)OC)C(C)C)nc5c4)cc3)ccc2[nH]1)C(C)C"
target_or_test_system = "Hepatitis C virus"
result = 0.031

[[record]]
query_smiles = "COC(=O)N[C@H](C(=O)N1CCC[C@H]1c1nc2ccc(-c3ccc4nc([C@@H]5CCCN5C(=O)[C@@H](NC(=O)OC)C(C)C)[nH]c4c3)cc2[nH]1)C(C)C"
target_or_test_system = "Hepatitis C virus"
result = 26

[[record]]
query_smiles = "COC(=O)N[C@H](C(=O)N1CC(C)(C)C[C@H]1c1nc2cc(-c3ccc(-c4ccc5[nH]c([C@@H]6CC(C)(C)CN6C(=O)[C@@H](NC(=O)OC)C(C)C)nc5c4)cc3)ccc2[nH]1)C(C)C"
target_or_test_system = "Hepatitis C virus"
result = 0.011

[[record]]
query_smiles = "COC(=O)N[C@H](C(=O)N1CCC[C@H]1c1nc2cc(-c3cccc(-c4ccc5[nH]c([C@@H]6CCCN6C(=O)[C@@H](NC(=O)OC)C(C)C)nc5c4)c3)ccc2[nH]1)C(C)C"
target_or_test_system = "Hepatitis C virus"
result = 20

[[record]]
query_smiles = "COC(=O)N[C@H](C(=O)N1C[C@@H](C(F)(F)F)C[C@H]1c1nc2cc(-c3ccc(-c4ccc5[nH]c([C@@H]6C[C@H](C(F)(F)F)CN6C(=O)[C@@H](NC(=O)OC)C(C)C)nc5c4)cc3)ccc2[nH]1)C(C)C"
target_or_test_system = "Hepatitis C virus"
result = 0.005

[[record]]
query_smiles = "COC(=O)N[C@H](C(=O)N1CCC[C@H]1c1nc2cc(-c3ccc(-c4ccc5nc([C@@H]6CCCN6C(=O)[C@@H](NC(=O)OC)C(C)C)[nH]c5c4)cc3OC)ccc2[nH]1)C(C)C"
target_or_test_system = "Hepatitis C virus"
result = 0.013

[[record]]
query_smiles = "COC(=O)N[C@H](C(=O)N1CCC[C@H]1c1nc2cc(CCc3ccc4[nH]c([C@@H]5CCCN5C(=O)[C@@H](NC(=O)OC)C(C)C)nc4c3)ccc2[nH]1)C(C)C"
target_or_test_system = "Hepatitis C virus"
result = 0.076

